Value source: paper PMC9866728

# assay_method_text: Loading kinetics of silicone micro-O-rings from methanol PAH solution (GC-MS/MS)
# Assay type: physicochemical
I would appreciate it if you labelled entries Yes when K Value is 20 or higher, otherwise No.

molecule	discrete_label
c1ccc2c(c1)-c1ccc3ccc4cccc5cc-2c1c3c45 [Indeno[1,2,3-cd]pyrene]	Yes

Next:
### Prompt Threshold query (K Value >= 20) on c1ccc2cc3c(ccc4ccccc43)cc2c1 [Benzo[a]anthracene]
### Response No

----------
# assay_method_text: Loading kinetics of silicone micro-O-rings from methanol PAH solution (GC-MS/MS)
# Type: physicochemical
I would appreciate it if you labelled entries Y when Plateau Value is 0.06 or higher, otherwise N.

Below are worked cases with known answers.
compound	discrete_label
c1cc2ccc3ccc4ccc5cccc6c(c1)c2c3c4c56 [Benzo[g,h,i]perylene]	Y
c1cc2ccc3cccc4ccc(c1)c2c34 [Pyrene]	Y
c1ccc2c(c1)ccc1cc3c(ccc4ccccc43)cc12 [Dibenzo[a,h]anthracene]	N
c1ccc2c(c1)-c1ccc3ccc4cccc5cc-2c1c3c45 [Indeno[1,2,3-cd]pyrene]	Y

### Prompt Threshold query (Plateau Value >= 0.06) on c1ccc2c(c1)ccc1c3ccccc3ccc21 [Chrysene]
### Response Y

----------
# assay_method_text: Recovery over time from exposure to cell culture media without cells (GC-MS/MS)
# Format: physicochemical
# setup_conditions: Solvent Extract; one phase decay fit
outcome_measure: Span
Field format: numeric only.

// worked examples, Span included
molecule	Span
c1cc2c3c(cccc3c1)CC2 [Acenaphthene]	12.3
c1ccc2cc3c(cc2c1)-c1cccc2cccc-3c12 [Benzo[k]fluoranthene]	11.54
c1ccc2cc3ccccc3cc2c1 [Anthracene]	11.96
c1ccc2c(c1)Cc1ccccc1-2 [Fluorene]	10.88
Cc1cccc2ccccc12 [1-Methylnaphthalene]	12.63
c1ccc2c(c1)ccc1ccccc12 [Phenanthrene]	11.89
c1ccc2c(c1)-c1cccc3cccc-2c13 [Fluoranthene]	11.75
c1ccc2ccccc2c1 [Naphthalene]	11.46

### Prompt So what does the record say about Span for C1=Cc2cccc3cccc1c23 [Acenaphthylene] ?
### Response 12.22

### Prompt Input c1ccc2c(c1)cc1ccc3cccc4ccc2c1c34 [Benzo[a]pyrene]
### Response 9.105

----------
Form field: Tau Value (one value per entry).
# assay_method_text: Loading kinetics of silicone micro-O-rings from methanol PAH solution (GC-MS/MS)
# Format: physicochemical
Field format: numeric only.

molecule	Tau Value
c1ccc2c(c1)ccc1cc3c(ccc4ccccc43)cc12 [Dibenzo[a,h]anthracene]	4.463e-6

### Prompt So what does the record say about Tau Value for c1ccc(-c2ccccc2)cc1 [Biphenyl] ?
### Response 0.03024

### Prompt Input c1cc2ccc3ccc4ccc5cccc6c(c1)c2c3c4c56 [Benzo[g,h,i]perylene]
### Response 0.01871

### Prompt Input c1cc2ccc3cccc4ccc(c1)c2c34 [Pyrene]
### Response 0.04503

### Prompt Input Cc1ccc2ccccc2c1 [2-Methylnaphthalene]
### Response 0.03747

### Prompt Input c1ccc2c(c1)ccc1c3ccccc3ccc21 [Chrysene]
### Response 7.042

### Prompt Input c1ccc2c(c1)-c1cccc3c1c-2cc1ccccc13 [Benzo[b]fluoranthene]
### Response 0.03401

### Prompt Input c1ccc2cc3c(ccc4ccccc43)cc2c1 [Benzo[a]anthracene]
### Response 6.421

### Prompt Input c1cc2cccc3c4cccc5cccc(c(c1)c23)c54 [Perylene]
### Response 0.02954

### Prompt Input c1ccc2c(c1)-c1ccc3ccc4cccc5cc-2c1c3c45 [Indeno[1,2,3-cd]pyrene]
### Response 0.02379
